Target: UniProt:P51577
Sequence (P51577 1-388): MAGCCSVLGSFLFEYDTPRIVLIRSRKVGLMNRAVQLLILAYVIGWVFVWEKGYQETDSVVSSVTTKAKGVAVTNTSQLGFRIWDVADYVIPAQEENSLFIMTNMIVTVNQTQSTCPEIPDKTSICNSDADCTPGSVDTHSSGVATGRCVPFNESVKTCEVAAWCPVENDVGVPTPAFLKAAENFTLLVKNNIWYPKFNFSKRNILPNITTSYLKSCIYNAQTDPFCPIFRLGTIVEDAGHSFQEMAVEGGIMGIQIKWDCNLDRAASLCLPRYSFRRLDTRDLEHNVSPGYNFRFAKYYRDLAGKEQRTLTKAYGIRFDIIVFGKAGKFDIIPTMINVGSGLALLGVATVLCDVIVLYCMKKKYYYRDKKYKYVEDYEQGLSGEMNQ
Assay: FLIPR Method for Rat P2X4 1321N1 Astrocytoma Cells
Conditions: 1321N1 stably expressing rat P2X4; agonist MgATP 5 μM (EC80)
Answer each item with its documented pIC50.
Notebook: values listed as pIC50 are -log10 of the concentration (mol/L).

### Prompt I'm curious: which pIC50 was measured for CCCC(=O)N(c1ccc(F)cc1)c1cc(NC(=O)Cc2c(F)cccc2Cl)ccn1 tested on UniProt:P51577?
### Response 6.12

### Prompt Next entry: CC(=O)N(c1ccc(F)c(C#N)c1)c1cc(NC(=O)Cc2cccc(F)c2Cl)ccn1
### Response 6.32

### Prompt Next entry: CC(=O)N(c1ccc(Cl)c(F)c1)c1cc(NC(=O)Cc2ccccc2Cl)ccn1
### Response 6.46

### Prompt Next entry: CC(=O)N(c1ccc(Cl)c(F)c1)c1cc(NC(=O)Cc2cccc(F)c2Cl)ccn1
### Response 6.36

### Prompt Next entry: CC(=O)N(c1ccc(F)c(Cl)c1)c1cc(NC(=O)Cc2cccc(F)c2Cl)ccn1
### Response 6.45

### Prompt Next entry: CC(=O)N(c1cc(F)cc(F)c1)c1cc(NC(=O)Cc2ccccc2OC(F)(F)F)ccn1
### Response 5.79

### Prompt Next entry: CC(=O)N(c1cccc(F)c1)c1cc(NC(=O)Cc2c(Cl)cc(F)cc2Cl)ccn1
### Response 6.91

### Prompt Next entry: CC(=O)N(c1cc(NC(=O)Cc2ccc(F)cc2Cl)ccn1)c1ccc(F)cc1F
### Response 6.58

Cited source: patent US20230257351A1
